# System under test: cytoplasmic domain of the human CSF-1R (Homo sapiens)
# Construct: Recombinant protein corresponding to the cytoplasmic domain of the human CSF-1R; purchased Invitrogen Corporation, Carlsbad, Calif; U.S.A. PV3249
# Sequence (P07333 539-972 limits assumed): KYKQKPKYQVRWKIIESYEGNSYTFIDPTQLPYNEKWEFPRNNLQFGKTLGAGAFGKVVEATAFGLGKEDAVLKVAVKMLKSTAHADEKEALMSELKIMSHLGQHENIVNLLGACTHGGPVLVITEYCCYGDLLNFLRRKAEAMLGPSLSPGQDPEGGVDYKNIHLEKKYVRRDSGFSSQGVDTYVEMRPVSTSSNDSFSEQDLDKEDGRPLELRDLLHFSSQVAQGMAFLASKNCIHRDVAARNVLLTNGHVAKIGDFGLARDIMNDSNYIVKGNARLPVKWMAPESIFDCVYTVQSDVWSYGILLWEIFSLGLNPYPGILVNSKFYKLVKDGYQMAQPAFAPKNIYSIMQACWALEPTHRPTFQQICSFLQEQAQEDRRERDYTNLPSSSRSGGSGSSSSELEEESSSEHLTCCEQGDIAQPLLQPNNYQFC
# Test protocol: In vitro kinase assay for CSF-1R (AlphaScreen)
# Format: biochemical
# Study conditions: tested at about 1 μM
Experimental endpoint: inhibition at 1 µM

CNC(=O)c1cc(Oc2ccc3nc(N[C@H](C)C4CCCCC4)[nH]c3c2)ccn1 :: 100%

Task: Checklist item: inhibition at 1 µM tested on cytoplasmic domain of the human CSF-1R (Homo sapiens), entry CNC(=O)c1cc(Oc2ccc3nc(N[C@@H]4c5ccccc5C[C@@H]4O)ncc3c2)ccn1 , value?
Output: 100%

Task: Find the measured inhibition at 1 µM: item CNC(=O)c1cc(Oc2ccc3nc(NC(=O)c4ccccc4)ncc3c2)ccn1 , target or system cytoplasmic domain of the human CSF-1R (Homo sapiens).
Output: 98%

Task: Hi! What's the reported inhibition at 1 µM for CNC(=O)c1cc(Oc2ccc3nc(NCC4CCCCC4)ncc3c2)ccn1 on cytoplasmic domain of the human CSF-1R (Homo sapiens)?
Output: 99%

Task: cytoplasmic domain of the human CSF-1R (Homo sapiens) / inhibition at 1 µM / CNC(=O)c1cc(Oc2ccc3nc(N[C@H](CO)C4CCCCC4)ncc3c2)ccn1 : value?
Output: 99%

Task: # value lookup — system cytoplasmic domain of the human CSF-1R (Homo sapiens), readout inhibition at 1 µM, item CNC(=O)c1cc(Oc2ccc3sc(N[C@@H]4CCCC[C@H]4O)nc3c2)ccn1
Output: 99%

Task: Request body: readout inhibition at 1 µM, system cytoplasmic domain of the human CSF-1R (Homo sapiens), query CNC(=O)c1cc(Oc2ccc3nc(N[C@@H](C)C4CCCCC4)ncc3c2)ccn1 . Return the value.
Output: 100%

Task: Checklist item: inhibition at 1 µM tested on cytoplasmic domain of the human CSF-1R (Homo sapiens), entry CCNC(=O)c1cc(Oc2ccc3nc(Nc4ccccc4N4CCOCC4)ncc3c2)ccn1 , value?
Output: 80%

Task: cytoplasmic domain of the human CSF-1R (Homo sapiens) / inhibition at 1 µM / CNC(=O)c1cc(Oc2ccc3nc(Nc4cccc5c4OC(F)(F)O5)ncc3c2)ccn1 : value?
Output: 98%

* * *

# System under test: PDGFRb (Homo sapiens, UniProt P09619)
# Construct: The kinase domain of PDGFRβ was assayed in 50 mM Hepes; purchased Invitrogen P3082
# Sequence (P09619 600-962 limits assumed): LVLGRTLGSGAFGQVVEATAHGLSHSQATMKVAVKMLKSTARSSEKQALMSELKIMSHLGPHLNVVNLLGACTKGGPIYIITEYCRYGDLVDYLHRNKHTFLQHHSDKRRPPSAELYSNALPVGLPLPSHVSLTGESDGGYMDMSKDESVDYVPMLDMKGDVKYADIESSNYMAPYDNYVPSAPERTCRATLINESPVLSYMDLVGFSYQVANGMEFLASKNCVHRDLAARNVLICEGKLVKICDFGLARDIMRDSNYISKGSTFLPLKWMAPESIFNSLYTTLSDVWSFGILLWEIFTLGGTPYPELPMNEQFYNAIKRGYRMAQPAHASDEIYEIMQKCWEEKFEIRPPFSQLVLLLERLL
# Test protocol: Inhibition of PDGFRb kinase in an in vitro biochemical assay (alphascreen)
# Study conditions: tested at about 1 μM; read-out: PDGFR % inhibition at 1 μM
Short version: inhibition at 1 µM at least 10% is label 1, less is label 0.

Task: Quick check, inhibition at 1 µM >= 10%? CNC(=O)c1cc(Oc2ccc3nc(N[C@H](C)c4ccccc4)ncc3c2)ccn1
Output: label 1

Task: Reported inhibition at 1 µM reaches at least 10% for CNC(=O)c1cc(Oc2ccc3nc(Nc4cccc5c4OC(F)(F)O5)ncc3c2)ccn1 ?
Output: label 0

Task: # bool: inhibition at 1 µM of CNC(=O)c1cc(Oc2ccc3nc(Nc4ccccc4OCCO)ncc3c2)ccn1 >= 10%
Output: label 1

Task: Has CNC(=O)c1cc(Oc2ccc3nc(N[C@@H]4CCCC[C@H]4N)ncc3c2)ccn1 a recorded inhibition at 1 µM greater than or equal to 10%?
Output: label 1

Task: Test whether the molecule CNC(=O)c1cc(Oc2ccc3nc(NCc4cccc5c4OCCO5)ncc3c2)ccn1 records inhibition at 1 µM of 10% or higher.
Output: label 1

Task: Exam item: decide whether the reported inhibition at 1 µM for CNC(=O)c1cc(Oc2ccc3nc(Nc4cccc5c4OCCO5)ncc3c2)ccn1 is at least 10%.
Output: label 0

Task: Is inhibition at 1 µM for CNC(=O)c1cc(Oc2ccc3nc(N[C@@H](C)c4ccccc4)ncc3c2)ccn1 at or above 10%?
Output: label 0

Task: # check: inhibition at 1 µM of CNC(=O)c1cc(Oc2ccc3nc(NC4CCN(C(=O)OC(C)(C)C)CC4)ncc3c2)ccn1 is greater than or equal to 10%
Output: label 0

Task: Assess whether reported inhibition at 1 µM for CCNC(=O)c1cc(Oc2ccc3nc(Nc4ccccc4N4CCOCC4)ncc3c2)ccn1 sits at 10% or higher.
Output: label 0

Task: Say whether CCOC(=O)N1CCC(Nc2ncc3cc(Oc4ccnc(C(=O)NC)c4)ccc3n2)CC1 shows inhibition at 1 µM of 10% or more.
Output: label 0

* * *

inhibition at 1 µM: recorded values
# System under test: cKIT (Homo sapiens)
# Construct: The kinase domain of cKIT was assayed in 50 mM Hepes; purchased Upstate 14-559
# Test protocol: Inhibition of cKIT kinase in an in vitro biochemical assay (alphascreen)
# Study conditions: tested at about 1 μM
Please reply with the bare figure in % and do not write the unit itself.

Task: Fill in: inhibition at 1 µM of CNC(=O)c1cc(Oc2ccc3nc(N[C@@H]4CCCC[C@H]4O)ccc3c2)ccn1 is ___
Output: 51

Task: Name the recorded inhibition at 1 µM for CCOC(=O)N1CCC(Nc2ncc3cc(Oc4ccnc(C(=O)NC)c4)ccc3n2)CC1 .
Output: 17

Task: For CNC(=O)c1cc(Oc2ccc3nc(Nc4ccccc4OCCOC)ncc3c2)ccn1 , what is its reported inhibition at 1 µM?
Output: 17

Task: Which value of inhibition at 1 µM has been reported for CNC(=O)c1cc(Oc2ccc3nc(N[C@@H](C)c4ccccc4)ncc3c2)ccn1 in the records?
Output: 16

Task: Report inhibition at 1 µM for CNC(=O)c1cc(Oc2ccc3nc(N[C@@H]4c5ccccc5C[C@@H]4O)ncc3c2)ccn1 please.
Output: 30

Task: # lookup: inhibition at 1 µM of CNC(=O)c1cc(Oc2ccc3nc(Nc4ccccc4CN4CCOCC4)ncc3c2)ccn1
Output: 13

Task: Any idea what its inhibition at 1 µM is? The compound is c1cc(Cc2ccc3nc(NCC4CCCCC4)sc3c2)ccn1
Output: 10

Task: Entry CNC(=O)c1cc(Oc2ccc3nc(NC(=O)c4ccccc4)ncc3c2)ccn1 has what inhibition at 1 µM?
Output: 13

Task: Bench note: what inhibition at 1 µM did CNC(=O)c1cc(Oc2ccc3nc(Nc4ccccc4OC(C)C)ncc3c2)ccn1 show?
Output: 27

Task: Endpoint output: inhibition at 1 µM of CNC(=O)c1cc(Oc2ccc3nc(NC4CCCCC4)ncc3c2)ccn1 . Value?
Output: 18

Task: I'd like to know its inhibition at 1 µM. The compound in question is CNC(=O)c1cc(Oc2ccc3nc(N[C@@H]4CCCC[C@H]4N)ncc3c2)ccn1
Output: 8

Task: Given the entry CNC(=O)c1cc(Oc2ccc3nc(N[C@@H](CO)C4CCCCC4)ncc3c2)ccn1 , report its measured inhibition at 1 µM.
Output: 61

Task: Give the measured inhibition at 1 µM of NC(=O)c1cc(Oc2ccc3nc(Nc4ccccc4N4CCOCC4)ncc3c2)ccn1 .
Output: 14

Task: Given CNC(=O)c1cc(Oc2ccc3nc(NC4CCCC4)ncc3c2)ccn1 , state its recorded inhibition at 1 µM.
Output: 13

Task: Could you share which inhibition at 1 µM value was measured for CNC(=O)c1cc(Oc2ccc3nc(N[C@H](C)c4ccccc4)ncc3c2)ccn1 ?
Output: 92

Task: Data request, read-out inhibition at 1 µM, for CC(=O)Nc1cc(Oc2ccc3nc(Nc4ccccc4N4CCOCC4)ncc3c2)ccn1
Output: 7

Task: Query: inhibition at 1 µM; subject: CNC(=O)c1cc(Nc2ccc3nc(N[C@@H]4CCCC[C@H]4O)sc3c2)ccn1
Output: 13

* * *

Property: inhibition at 1 µM; scope: individual compounds
# System under test: cKIT (Homo sapiens, UniProt P10721)
# Construct: The kinase domain of cKIT was assayed in 50 mM Hepes; purchased Upstate 14-559
# Sequence (P10721 589-937 limits assumed): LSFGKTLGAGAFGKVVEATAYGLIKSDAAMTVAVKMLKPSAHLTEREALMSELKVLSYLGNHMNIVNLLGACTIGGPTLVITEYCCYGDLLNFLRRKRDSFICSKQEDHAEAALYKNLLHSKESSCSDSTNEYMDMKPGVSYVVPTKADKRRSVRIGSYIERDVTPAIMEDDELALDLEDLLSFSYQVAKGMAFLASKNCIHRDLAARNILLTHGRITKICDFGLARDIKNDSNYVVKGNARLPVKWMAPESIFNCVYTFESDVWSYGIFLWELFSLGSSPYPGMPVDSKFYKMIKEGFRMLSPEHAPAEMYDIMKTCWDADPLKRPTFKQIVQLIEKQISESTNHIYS
# Test protocol: Inhibition of cKIT kinase in an in vitro biochemical assay (alphascreen)
# Study conditions: tested at about 1 μM
Answer with a number only, understood to be in %.

Some solved entries appear below for comparison.
CC[C@H](C)[C@@H](CO)Nc1ncc2cc(Oc3ccnc(C(=O)NC)c3)ccc2n1 [Cmpd 14] :: 19
c1ccc(N2CCOCC2)c(Nc2ncc3cc(Oc4ccncc4)ccc3n2)c1 [Cmpd 28] :: 8
CNC(=O)c1cc(Oc2ccc3nc(N[C@H]4CCCC[C@@H]4O)ccc3c2)ccn1 [Example 2] :: 21
CNC(=O)c1cc(Oc2ccc3nc(NCC(C)(C)N4CCOCC4)ncc3c2)ccn1 [Example 61] :: 12
CNC(=O)c1cc(Oc2ccc3nc(N[C@H]4c5ccccc5C[C@H]4O)ncc3c2)ccn1 [Cmpd 20] :: 60

Task: // inhibition at 1 µM lookup, key: CNC(=O)c1cc(Oc2ccc3nc(Nc4ccccc4OC)ncc3c2)ccn1 [Example 44]
Output: 44

Task: # input compound: CNC(=O)c1cc(Oc2ccc3nc(OCC4CCCCC4)ncc3c2)ccn1 [Example 55] ; wanted: its inhibition at 1 µM
Output: 42

Task: Suppose we examine the compound CNC(=O)c1cc(Oc2ccc3nc(NC(C)c4nccs4)ncc3c2)ccn1 (centres unmarked) [Example 48] ; what inhibition at 1 µM value has been reported?
Output: 18

Task: Can you look up the measured inhibition at 1 µM of CCCNc1ncc2cc(Oc3ccnc(C(=O)NC)c3)ccc2n1 [Example 52] for me?
Output: 7

Values compiled from patent US20100261679A1.
